Biological target: kinases (kinome) (Homo sapiens, UniProt Q9UBF8)
Construct: determined in kinobeads assays with mass spectrometry detection of kinases as described previously; endogenous in cells
Sequence (Q9UBF8 whole entry): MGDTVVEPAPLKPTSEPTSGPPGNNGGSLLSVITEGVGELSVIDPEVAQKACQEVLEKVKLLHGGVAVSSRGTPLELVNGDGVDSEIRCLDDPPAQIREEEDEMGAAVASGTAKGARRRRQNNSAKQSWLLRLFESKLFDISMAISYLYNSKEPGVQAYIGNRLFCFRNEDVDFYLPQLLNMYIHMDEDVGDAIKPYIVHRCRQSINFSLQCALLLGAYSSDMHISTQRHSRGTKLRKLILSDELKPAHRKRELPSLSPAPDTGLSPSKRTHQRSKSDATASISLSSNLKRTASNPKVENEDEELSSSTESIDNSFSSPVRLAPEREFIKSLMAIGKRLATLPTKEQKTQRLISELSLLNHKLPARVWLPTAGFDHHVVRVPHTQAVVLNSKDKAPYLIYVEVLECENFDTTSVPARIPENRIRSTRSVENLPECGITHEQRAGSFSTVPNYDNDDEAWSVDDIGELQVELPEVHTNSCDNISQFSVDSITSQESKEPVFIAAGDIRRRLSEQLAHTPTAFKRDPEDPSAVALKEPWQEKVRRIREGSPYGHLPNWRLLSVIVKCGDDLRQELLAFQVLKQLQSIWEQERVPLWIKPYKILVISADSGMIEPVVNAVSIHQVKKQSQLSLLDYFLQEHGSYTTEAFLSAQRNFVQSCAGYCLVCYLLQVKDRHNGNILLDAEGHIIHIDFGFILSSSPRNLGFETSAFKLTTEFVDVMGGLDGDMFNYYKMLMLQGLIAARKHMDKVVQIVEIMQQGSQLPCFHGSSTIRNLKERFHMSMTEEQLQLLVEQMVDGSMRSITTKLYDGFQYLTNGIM
Assay: kinobeads assay with mass spectrometry detection of kinases (kinase selectivity profile)
Conditions: PIK4Cb (Lipid Kinase), IPI00641770
ASSAY READOUT: IC50

Example results:
{"columns": ["COMPOUND", "IC50"],
 "data": [
  ["C[C@H]1COCCN1c1nc(-c2ccc(NC(=O)NC3CC3)cc2)cc(-c2ccccc2S(C)(=O)=O)n1 [Example 4]", "> 10 µM"],
  ["C[C@H]1COCCN1c1nc(-c2ccc(NC(=O)NC3CC3)cc2)cc(-c2cccnc2S(C)(=O)=O)n1 [Example 46]", "> 10 µM"],
  ["C[C@H]1COCCN1c1nc(-c2ccc(NC(=O)NC3CC3)cc2)cc(-c2cc(F)ccc2S(C)(=O)=O)n1 [Example 40]", "> 10 µM"]
]}

Items follow; give IC50 for each.
1. C[C@H]1COCCN1c1nc(-c2ccc(NC(=O)N[C@H]3CCC[C@@H]3O)cc2)cc(-c2cc(F)ccc2S(C)(=O)=O)n1 [Example 76]
2. CCNC(=O)Nc1ccc(-c2cc(-c3ccccc3C#N)nc(N3CCOC[C@@H]3C)n2)cc1 [Example 8]
3. C[C@H]1COCCN1c1cc(-c2ccccc2S(C)(=O)=O)nc(-c2ccc(NC(=O)NC3CC3)cc2)n1 [Example 6]
4. C[C@H]1COCCN1c1cc(-c2ccccn2)nc(-c2ccc(NC(=O)NCCO)cc2)n1 [Example 43]

Reply:
["> 10 µM", "> 10 µM", "> 10 µM", "> 10 µM"]
